system: OVCAR-3 ovarian; experiment: NCI tumour cell line growth inhibition, 48 h
Assignment: determine reported TGI for the given molecules.

Input: Read off the recorded TGI for CCN(CC)CCO[Si](OCCN(CC)CC)(OCCN(CC)CC)OCCN(CC)CC
Output: > 100 µM

Input: Consider the molecule CCCN1CCC=C(c2ccc(Nc3nc(Nc4ccccc4C(N)=O)c4cc[nH]c4n3)c(C)c2)C1 . State its measured TGI.
Output: > 25 µM

Input: Kindly indicate its recorded TGI. Item: NC(=O)Oc1ccccc1
Output: > 100 µM

Input: State its TGI: Clc1cc2nnn(C3CCCO3)c2cc1Cl (centres undefined)
Output: > 100 µM

* * *

Please provide measured TGI for the entries that follow.
system: SR leukemia; test: NCI tumour cell line growth inhibition, 48 h

Input: Give TGI for this entry on SR leukemia: Cc1ccc(S(=NS(=O)(=O)c2ccc(C)cc2)c2ccc(C)cc2)cc1
Output: > 100 µM

Input: For SR leukemia, give the measured TGI of the entry CC(=O)NC1C(OCc2ccccc2)OC(CO)C(O)C1OCC(=O)N[C@@H](C)C(=O)N[C@H](CCC(=O)NCCCNc1ccc([N+](=O)[O-])c2[nH]c3ccccc3c(=O)c12)C(N)=O (some centres undefined)
Output: > 100 µM

Input: Write down measured TGI (SR leukemia) for this molecule. CN/N=C(\C(=O)Nc1ccc(C)c(C)c1)C(C(=O)OC)c1nc2ccc([N+](=O)[O-])cc2[nH]c1=O (centres undefined)
Output: > 100 µM

Input: Look up and report measured TGI (SR leukemia) for the following molecule: COc1cc2ccc3ccncc3c2cc1OC
Output: > 10 µM

* * *

Give measured TGI for each item. Keep answers brief.
test system: LOX IMVI melanoma; test: NCI tumour cell line growth inhibition, 48 h
Express your answer in µM, writing the number without its unit.

Input: Given CC(=O)OCC1OC(n2c(-c3ccccc3)c(N=Nc3ccc(C)cc3)c(C)c(C#N)c2=S)C(OC(C)=O)C(OC(C)=O)C1OC(C)=O (centres undefined) , respond with its TGI.
Output: 64.1

Input: Name the recorded TGI of the compound listed here: COc1ccc(-c2n/c(=C\c3c(O)[nH]c4ccccc34)cc3c2=Nc2ccccc2-3)cc1
Output: 2.88

Input: Give reported TGI value for O=C(C=C=Nc1ccccc1)C(=O)N=C=Cc1ccccc1
Output: 4.48

Input: Give TGI for CCOC(=O)C1=C(C)N(Cc2ccccc2)C2(O)C=CC(=O)C3=C(O)c4ccccc4C(=O)C312 (centres undefined)
Output: 36.6

Input: Specify TGI for Cn1nc(-c2ccccc2)c(C(=O)/C=C/c2ccc(Cl)cc2)c(N2CCCC2)c1=O and stop.
Output: 39.2

Input: Give the measured TGI for COC(=O)c1cc(/C=C\c2cc(OC)ccc2OC)ccc1OC
Output: 56.9

Input: Look up and report measured TGI for this entry: O=C(/C=C/c1ccco1)c1ccc(Nc2nc(Nc3ccc(F)cc3)nc(Nc3ccc(F)cc3)n2)cc1
Output: 45.3

Input: Supply recorded TGI for O=C(/C=C/c1cccc2ccccc12)Nc1ncc(Cc2ccccc2)s1 here.
Output: 11

* * *

So I've got a bunch of compounds here, and I need their TGI values.
test system: RXF 393 renal; test: NCI tumour cell line growth inhibition, 48 h

Input: Note down TGI recorded for CC(C)N1C(C)[C@@H](c2ccccc2)O[P@]1(=O)CC1=CCCCC1 (stereo partly drawn)
Output: > 100 µM

Input: Tell me its TGI given CCCN1CCC=C(c2ccc(Nc3nc(Nc4ccccc4C(N)=O)c4cc[nH]c4n3)c(C)c2)C1 as the entry.
Output: > 25 µM

Input: Input Cn1cc(C2=C(c3cn(CCCCC(=N)N)c4ccccc34)C(=O)NC2=O)c2ccccc21 , output reported TGI.
Output: > 25 µM

Input: Determine its reported TGI: CCOC(=O)c1c(C)n(Cc2ccccc2)c2c1cc1oc(=O)c(=O)n3cnc2c13
Output: > 50 µM

Input: Supply measured TGI of S=c1c2ccccc2c(=S)n2n1CC=CC2 in your reply.
Output: > 100 µM

Input: Given the compound COc1cc2c(cc1OCCCOc1ccc(-c3nc4ccc(N5CCN(C)CC5)cc4[nH]3)cc1)N=C[C@@H]1CCCN1C2=O , write its reported TGI.
Output: < 0.01 µM

Input: Please supply the value of reported TGI for the item CCOc1cc2c(cc1O)C(N)C[C@@H]1[C@@H]2CC[C@]2(C)[C@@H](O)CC[C@@H]12 (stereo partly drawn)
Output: > 100 µM

Input: Please report TGI for the following compound: O=C(Cc1ccccc1)NN1C(=O)/C(=C\c2ccccc2O)SC1=Nc1ccccc1
Output: > 100 µM

* * *

system: MDA-MB-435; experiment: NCI tumour cell line growth inhibition, 48 h
Assignment: determine reported TGI for the given compounds.

Input: In one line, give reported TGI of the entry COc1cc(/C=N/NC2=NCCN2)ccc1O .
Output: > 100 µM

Input: Annotate the compound CCCN1CCC=C(c2ccc(Nc3nc(Nc4ccccc4C(N)=O)c4cc[nH]c4n3)c(C)c2)C1 with its measured TGI.
Output: > 25 µM

Input: Note down TGI recorded for O=C1C(c2c(O)[nH]c3ccc(S(=O)(=O)NCCO)cc23)=Nc2ccccc21
Output: > 100 µM

Input: Give the measured TGI for COc1ccc(-n2cnc3c(NC(Cc4ccccc4)C(=O)O)ncnc32)cc1 (stereo unspecified)
Output: > 100 µM

Input: # return recorded TGI for input O=P(O)(O)CN1CCNCCN(CP(=O)(O)O)CC1
Output: > 100 µM

Input: Hello, please tell me recorded TGI for this one: O=C(Nc1ccc2ccccc2c1)c1cc2cc(CCl)ccc2oc1=O
Output: > 100 µM

Input: Recall and state the measured TGI for COc1cc2ccc3ccncc3c2cc1OC .
Output: > 10 µM

Input: Please indicate TGI recorded for Cc1cc2ccc(N)nc2[nH]c1=O
Output: > 100 µM

Input: # return recorded TGI for entry Cn1cc(C2=C(c3cn(CCCCC(=N)N)c4ccccc34)C(=O)NC2=O)c2ccccc21
Output: > 25 µM

Input: Return value of TGI for input C(#Cc1ccccc1)SC1=C(c2ccccc2)S/C(=C(\SC#Cc2ccccc2)c2ccccc2)S1 , no commentary.
Output: > 100 µM

Input: Fill in reported TGI for this entry: Cn1cc(NC(=O)Nc2cc(C(=O)Nc3cc(C(=O)Nc4cc(S(=O)(=O)O)c5cc(S(=O)(=O)O)cc(S(=O)(=O)O)c5c4)n(C)c3)n(C)c2)cc1C(=O)Nc1cc(C(=O)Nc2cc(S(=O)(=O)O)c3cc(S(=O)(=O)O)cc(S(=O)(=O)O)c3c2)n(C)c1
Output: > 100 µM

Input: Give me measured TGI, please, for this compound: O=C(Cc1ccccc1)NN1C(=O)/C(=C\c2ccccc2O)SC1=Nc1ccccc1
Output: > 100 µM

Input: # return recorded TGI for input O=c1[nH]nc(-c2ccccc2)n1-n1cnnc1
Output: > 100 µM

Input: Give the reported value of TGI for this record: COc1cccc(NC2=C(Cl)C(=O)N(Cc3ccc(Cl)cc3)C2=O)c1
Output: 1.61 µM

Input: For CCCOC(=O)C1C2CCC(O2)C1C(=O)O (stereo unspecified) , write its TGI.
Output: > 100 µM

Input: Return reported TGI. Input compound: CCOC(=O)CCC(NC(=O)c1ccc(Nc2nc3ccccc3nc2C(=O)OCC)cc1)C(=O)OCC (stereo unspecified)
Output: > 100 µM

Input: Answer with the recorded TGI for the compound listed here: O=C(/C=C/c1cccc2ccccc12)Nc1ncc(Cc2ccccc2)s1
Output: 0.725 µM

Input: Look up TGI of C=CC(C)(O)CC/C=C(\CO)C(=O)OC1C(C)OC(O[C@](C)(C=C)CC/C=C(\CO)C(=O)O[C@H]2C[C@@]3(C(=O)OC4OC(CO)C(O)C(O)C4OC4OC(C)C(OC5OC(CO)C(O)C5O)C(OC5OC(CO)C(O)C(O)C5O)C4O)C(CC2(C)C)C2=CCC4[C@@]5(C)CC[C@H](OC6OC(COC7OC(C)C(O)C(O)C7OC7OCC(O)C(O)C7O)C(O)C(O)C6NC(C)=O)C(C)(C)C5CC[C@@]4(C)[C@]2(C)C[C@H]3O)C(O)C1O (stereo partly specified) and report it.
Output: 0.382 µM

Input: Kindly indicate its recorded TGI. Item: O=C1c2cc([N+](=O)[O-])sc2C(=O)c2c([N+](=O)[O-])csc21
Output: 0.311 µM

Input: State its TGI for this compound: CC[C@@]1(O)C(=O)OCc2c1cc1n(c2=O)Cc2c-1nc1ccccc1c2/C=N\NC(=O)C(N)Cc1c[nH]c2ccccc12 (stereo partly specified)
Output: > 87.9 µM

Input: Tell me its TGI given Cc1c(Cl)c(C)c(Cc2c(C)c(Cl)c(C)c(Cl)c2O)c(O)c1Cl as the entry.
Output: 11.1 µM

Input: Specify reported TGI for the compound shown: O=S(=O)(O)c1ccc2c(N=Nc3ccc(Sc4ccc(N=Nc5c(O)ccc6cc(S(=O)(=O)O)ccc56)cc4)cc3)c(O)ccc2c1
Output: > 100 µM

Input: Consider the compound CC1C2(C)OCC(C#N)(C(=N)O2)C1(C#N)C#N (stereo unspecified) and give its recorded TGI.
Output: > 100 µM

Input: Identify measured TGI corresponding to COc1ccc(C2=Nc3c/c(=C\c4c(O)[nH]c5cc(Cl)ccc45)ccc3=N2)cc1
Output: 1.97 µM

Input: State its TGI for this compound: CCOC(=O)c1cc(Br)c(-c2cc(C)co2)[nH]1
Output: > 100 µM

Input: Give the measured TGI for CCN(CC)Cc1cc(Nc2c3ccccc3nc3cc(Cl)ccc23)ccc1O
Output: 3.34 µM
